The reported measurements were obtained from paper PMC9029315.

- Test system: HFF1 non-neoplastic human fibroblasts
- ASSAY NOTES: HFF1 cell viability assay
- Assay type: cell-based
- SETTINGS: HFF-1, 72 h, read-out: HFF1 viability, IC50
REPORTED PROPERTY: pIC50
Note: pIC50 values are expressed as the negative base-10 logarithm of concentration in M.

# MOLECULE, pIC50
measured = [
    ("O=C(c1cc2c(F)cc(F)cc2[nH]1)N1CCN(C(=O)C23CC4CC(CC(C4)C2)C3)CC1 [Compound 15]", 4.71),
]

// sample O=C(NCc1ccccc1)c1cc2c(F)cc(F)cc2[nH]1 [Compound 9a] , its pIC50 was 3.92
